System: CEM cells HIV-1 protection, formazan growth assay
Assay: NCI AIDS Antiviral Assay
Conditions: measured here: growth of uninfected CEM cells
Description: The ability of compounds to protect human CEM cells from HIV-1 infection is measured as a screen for new compounds capable of inhibiting the HIV virus. Five concentrations of drug were tested on uninfected and infected cells and cell growth was measured using a soluble formazan assay. […] Compounds that provided at least 50% protection were retested. Compounds that provided at least 50% protection on retest were listed as moderately active. […]
Categorized via IC50: b0 = under 40 µM, b1 = from 40 µM up to 100 µM, b2 = 100 µM and over

- COMPOUND: "CO[C@H]1O[C@@H]2OC3(C)CCC4[C@H](C)CCC([C@H]1C)[C@]42OO3 (stereo not given in full)"
  ASSIGNED_CLASS: "b2"
- COMPOUND: "Cc1cn(C2CC(N=[N+]=[N-])C(COC(=O)C3CNC(=O)N3)O2)c(=O)[nH]c1=O (stereo not given)"
  ASSIGNED_CLASS: "b1"
- COMPOUND: "COc1cccc(NC(=O)CC(=O)N2N=C(C)C(N=Nc3ccc(C(=O)O)cc3)C2=O)c1 (stereo not given)"
  ASSIGNED_CLASS: "b1"
- COMPOUND: "N#C/C(=C\\c1ccccc1)c1ccc(F)cc1"
  ASSIGNED_CLASS: "b1"
- COMPOUND: "CCOC(=O)c1c(NC(=S)Nc2ccc(Cl)cc2)sc2c1CCN(C)C2"
  ASSIGNED_CLASS: "b2"
- COMPOUND: "CCOC(=O)C(=O)C1C(=O)Nc2ccccc21 (stereo not given)"
  ASSIGNED_CLASS: "b2"
- COMPOUND: "CN1c2c(nc(N)[nH]c2=O)NCC1CCNc1ccc(C(=O)NC(CCC(=O)O)C(=O)O)cc1 (stereo not given)"
  ASSIGNED_CLASS: "b2"
- COMPOUND: "CCOC(C)=Nc1cc(OC)cc2c1NC(=O)CCS2"
  ASSIGNED_CLASS: "b2"
- COMPOUND: "CCCCCCCCCCCCCCCCCCSCC(COP(=O)(O)OP(=O)(O)OCC1OC(n2ccc(=O)[nH]c2=O)CC1N=[N+]=[N-])OC(=O)CCCCCCCCCCCCCCC (stereo not given)"
  ASSIGNED_CLASS: "b2"
- COMPOUND: "[O-][n+]1ccccc1SSc1cccc[n+]1[O-]"
  ASSIGNED_CLASS: "b0"
- COMPOUND: "O=C(O)Cc1ccc(Nc2nc3cc(C(F)(F)F)ccc3nc2C(=O)O)cc1"
  ASSIGNED_CLASS: "b2"
- COMPOUND: "COC(=O)C1C(=O)CC(C)(O)C(C(=O)OC)C1c1ccc(N(C)C)cc1 (stereo not given)"
  ASSIGNED_CLASS: "b2"
- COMPOUND: "CN(C)C(=N)OCc1ccccc1"
  ASSIGNED_CLASS: "b2"
- COMPOUND: "CN1CC2=C(OC(N)=C(C#N)C2c2cccs2)/C(=C/c2cccs2)C1 (stereo not given)"
  ASSIGNED_CLASS: "b0"
- COMPOUND: "C[N+](C)=c1ccc2nc3c(ccc4ccccc43)oc-2c1"
  ASSIGNED_CLASS: "b0"
- COMPOUND: "O=C1/C(=C/c2ccc(Br)s2)NC(=S)N1CN1CCCCC1"
  ASSIGNED_CLASS: "b0"
- COMPOUND: "CCN(CC)CCOC(=O)c1cc2cc3cc(C(=O)OCCN(CC)CC)c(=O)oc3c(C)c2oc1=O"
  ASSIGNED_CLASS: "b2"
